Where these numbers come from: patent US20180057505A1

- tested_on: PAR2 (HT-29 cells) (Homo sapiens)
- Construct: host or cells: HT-29
- assay_method_text: Ca FLIPR TETRA assay, ANTAGONIST mode, activator 3.1 U/mL trypsin
- Format: cell-based
- assay_context: HT-29 cells; activator 3.1 U/mL trypsin; Method A: maximal concentration of antagonist 0.1, 1 or 2 μM
pIC50: −log10 of the molar value.
assay_readout: pIC50

| compound | number |
| --- | --- |
| Cc1cc(C(=O)N2CCN(C(=O)c3cc4nc(C5CCC(C)(C)CC5)cc(C(C)(C)C)c4o3)C(C)(C)C2)[nH]n1 | 8.72 |
| CC(C)(C)c1cc(-c2ccc(Cl)c(F)c2)nc2cc(C(=O)N3CCN(c4ncc(-c5nnn[nH]5)cn4)CC3(C)C)oc12 | 8.55 |
| CC(C)(C)c1cc(C2CCC(F)(F)CC2)nc2cc(C(=O)N3CCN(c4cn[nH]c4)C(=O)C3(C)C)oc12 | 6.96 |
| CC1(C)CCC(c2cc(C(C)(C)C)c3oc(C(=O)N4CCN(c5cn[nH]c5)C(=O)C4(C)C)cc3n2)CC1 | 7.92 |

(P) CC(C)(CCC(=O)N1CCN(C(=O)c2cc3nc(-c4ccc(Cl)c(F)c4)cc(C(C)(C)C)c3o2)C(C)(C)C1)C(=O)O
(Q) CC(C)(C)c1cc(-c2ccc(Cl)cc2)nc2cc(C(=O)N3CCN(c4cnccn4)CC3(C)C)oc12 [Example I-402]
Problem: Between these two entries, P and Q , state which has the higher pIC50. Could you answer with the label of the item you picked?
Result: P

====

- tested_on: PAR2 (HT-29 cells) (Homo sapiens)
- Construct: host or cells: HT-29
- Sequence (P55085 26-397): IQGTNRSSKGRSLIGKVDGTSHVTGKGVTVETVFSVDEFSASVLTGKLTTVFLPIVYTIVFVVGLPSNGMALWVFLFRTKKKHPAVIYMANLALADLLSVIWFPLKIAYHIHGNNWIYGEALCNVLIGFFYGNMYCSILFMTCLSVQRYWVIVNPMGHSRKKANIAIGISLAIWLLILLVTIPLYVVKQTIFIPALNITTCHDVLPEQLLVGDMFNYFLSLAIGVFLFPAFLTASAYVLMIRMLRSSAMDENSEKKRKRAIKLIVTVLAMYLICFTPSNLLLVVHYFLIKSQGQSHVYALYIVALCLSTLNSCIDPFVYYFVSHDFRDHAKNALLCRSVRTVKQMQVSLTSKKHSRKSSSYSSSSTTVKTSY
- assay_method_text: Ca FLIPR TETRA assay, ANTAGONIST mode, activator 3.1 U/mL trypsin
- Assay type: cell-based
- assay_context: HT-29 cells; activator 3.1 U/mL trypsin; Method A: maximal concentration of antagonist 0.1, 1 or 2 μM
assay_readout: IC50 (nM)

Some entries whose results are on file:
| compound | tested_on | IC50, nM |
| --- | --- | --- |
| Cc1oc(C2CCN(C(=O)c3cc4nc(-c5ccc(Cl)cc5)cc(C(C)(C)C)c4o3)C(C)(C)C2)nc1C(=O)O (stereo not drawn) | PAR2 (HT-29 cells) (Homo sapiens) | 0.9 |
| CC(C)(CN1CCN(C(=O)c2cc3nc(-c4ccc(Cl)c(F)c4)cc(C(C)(C)C)c3o2)C(C)(C)C1=O)C(=O)O | PAR2 (HT-29 cells) (Homo sapiens) | 1.1 |

(P) CC(C)(C)c1cc(-c2ccc(Cl)c(F)c2)nc2cc(C(=O)N3CCN(c4ccc(C(=O)O)c(N)n4)CC3(C)C)oc12
(Q) CC1(C)CN(C(=O)[C@H]2C[C@@](C)(O)C2)CCN1C(=O)c1cc2nc(-c3ccc(Cl)c(F)c3)cc(C3(C#N)CC(F)(F)C3)c2o1
(R) CC(C)(C)c1cc(-c2ccc(Cl)cc2)nc2cc(C(=O)N3CCC(c4nc(C(=O)O)cs4)CC3(C)C)oc12 (stereo not drawn)
(S) CC(C)(C)c1cc(-c2ccc(Cl)c(F)c2)nc2cc(C(=O)N3CCN(C(=O)NS(C)(=O)=O)CC3(C)C)oc12
Problem: # rank by IC50, ascending (min first) I'd appreciate it if you listed the labels in the requested order.
Result: R, P, Q, S
(R: 0.1 nM, P: 0.8 nM, Q: 1.6 nM, S: 45 nM)
